Where do the numbers come from? From paper PMC10803289.

- measured target: wild-type hSGLT2 (membrane fraction of hSGLT2 and MAP17 expressing cells) (Homo sapiens)
- Construct: expressed in transfected cells; host or cells: Expi293 cells, crude membrane fraction
- protocol summary: SGLT2 inhibitor-binding assay via affinity selection–mass spectrometry, crude membrane, WT
- test parameters: phloretin; WT; mean ± SEM n=4
pKd: −log10 of the molar value.
measured property: pKd

* O=C(CCc1ccc(O)cc1)c1c(O)cc(O)cc1O [Phloretin] | 4.92

====

- measured target: wild-type hSGLT2 (membrane fraction of hSGLT2 and MAP17 expressing cells) (Homo sapiens)
- Construct: expressed in transfected cells; host or cells: Expi293 cells, crude membrane fraction
- Sequence (P31639 1-672): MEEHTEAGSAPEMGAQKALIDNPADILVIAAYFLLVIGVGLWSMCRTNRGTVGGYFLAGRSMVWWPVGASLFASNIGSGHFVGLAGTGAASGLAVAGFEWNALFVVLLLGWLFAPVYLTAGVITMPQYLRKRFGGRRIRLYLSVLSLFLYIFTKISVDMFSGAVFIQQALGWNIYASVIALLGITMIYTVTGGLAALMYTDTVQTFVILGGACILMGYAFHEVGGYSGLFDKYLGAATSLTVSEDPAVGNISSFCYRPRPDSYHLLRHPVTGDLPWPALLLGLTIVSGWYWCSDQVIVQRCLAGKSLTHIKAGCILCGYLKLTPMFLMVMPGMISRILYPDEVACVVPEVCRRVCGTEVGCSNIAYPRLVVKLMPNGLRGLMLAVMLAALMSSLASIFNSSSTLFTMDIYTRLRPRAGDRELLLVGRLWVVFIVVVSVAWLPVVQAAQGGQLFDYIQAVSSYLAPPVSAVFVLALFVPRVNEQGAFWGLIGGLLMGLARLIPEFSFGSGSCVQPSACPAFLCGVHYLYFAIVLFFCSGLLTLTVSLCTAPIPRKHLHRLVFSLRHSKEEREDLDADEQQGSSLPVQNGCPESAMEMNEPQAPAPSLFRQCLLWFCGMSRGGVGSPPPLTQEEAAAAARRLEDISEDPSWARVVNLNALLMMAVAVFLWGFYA
- Sequence (Q13113 1-114 partner): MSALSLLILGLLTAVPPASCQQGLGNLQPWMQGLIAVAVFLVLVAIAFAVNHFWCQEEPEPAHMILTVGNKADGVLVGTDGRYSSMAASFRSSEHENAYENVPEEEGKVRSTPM
- protocol summary: SGLT2 inhibitor-binding assay via affinity selection–mass spectrometry, crude membrane, WT
- test parameters: Na(+); mean ± SEM n=3
Below: a set of entries, each annotated with reported Kd.
measured property: Kd (nM)

- OC[C@H]1O[C@@H](n2cc(Cc3ccc(C4CC4)cc3)c3c(F)cccc32)[C@H](O)[C@@H](O)[C@@H]1O: 115
- Cc1ccc([C@@H]2O[C@H](CO)[C@@H](O)[C@H](O)[C@H]2O)cc1Cc1ccc(-c2ccc(F)cc2)s1: 94
